# Post-emergence action against PHBPU in % per record follows
system: Pharbitis purpurea (PHBPU); experiment: Post-emergence herbicidal action against PHBPU; format: in vivo; conditions: dosage 320 g/ha
QUANTITY NAME: Post-emergence action against PHBPU in % (%)

INSERT INTO results (input_smiles, result_value) VALUES
  ('C[C@@H](Oc1nn(-c2ccccn2)c(-c2ccc(F)nc2)c1Br)C(=O)O', 80),
  ('COC(=O)COc1nn(-c2ncccc2F)c(-c2ccnc(F)c2)c1Br', 80),
  ('COCCOC(=O)COc1nn(-c2ncccc2C)c(-c2cncc(F)c2)c1Br', 100),
  ('CS(=O)(=O)CCOC(=O)COc1nn(-c2ccccn2)c(-c2ccc(F)nc2)c1Br', 90),
  ('C=C(COC(=O)COc1nn(-c2ccccn2)c(-c2ccc(F)nc2)c1Br)C(=O)OC', 90),
  ('COC(=O)[C@@H](C)Oc1nn(-c2nc(F)ccc2F)c(-c2ccc(F)nc2)c1Cl', 80),
  ('CCOC(=O)COc1nn(-c2ncccc2F)c(-c2ccc(F)nc2)c1F', 90),
  ('O=C(O)COc1nn(-c2ccccn2)c(-c2ccc(Cl)nc2)c1Cl', 80),
  ('CCOC(=O)COc1nn(-c2ncccc2F)c(-c2cncc(F)c2)c1C(F)(F)F', 90);

* * *

# Post-emergence action against ORYSA in % per record follows
Tested on: Oryza sativa (ORYSA)
Type: in vivo
Details: crop plant compatibility, 80 g/ha, effect in comparison to untreated controls
Experimental: Seeds of monocotyledonous and dicotyledonous weeds and crop plants are placed in sandy loam in plastic or organic planting pots, covered with soil and cultivated in a greenhouse under controlled growth conditions. 2 to 3 weeks after sowing, the test plants are treated at the one-leaf stage. […]
QUANTITY NAME: Post-emergence action against ORYSA in % (%)

INSERT INTO assay_data (molecule, quantity_name, result_value) VALUES
  ('COC(=O)C1CCCN1C(=O)COc1nn(-c2ccccn2)c(-c2ccc(F)nc2)c1Br (centres unmarked)', 'Post-emergence action against ORYSA in %', 10),
  ('O=C(COc1nn(-c2ccccn2)c(-c2ccc(F)nc2)c1Br)OCC1CCCO1 (centres unmarked)', 'Post-emergence action against ORYSA in %', 20),
  ('CCOC(=O)[C@@H](C)Oc1nn(-c2ncccc2F)c(-c2ccnc(F)c2)c1Br', 'Post-emergence action against ORYSA in %', 10),
  ('COC(=O)[C@H](C)NC(=O)COc1nn(-c2ccnc(F)c2)c(-c2ccc(F)nc2)c1Br', 'Post-emergence action against ORYSA in %', 0),
  ('Cc1cccc(-n2nc(OCC(=O)O)c(Br)c2-c2ccc(F)nc2)n1', 'Post-emergence action against ORYSA in %', 0),
  ('CCOC(=O)COc1nn(-c2ncccc2OC)c(-c2ccc(F)nc2)c1Br', 'Post-emergence action against ORYSA in %', 0),
  ('COC(=O)CNC(=O)COc1nn(-c2ccccn2)c(-c2ccc(F)nc2)c1Br', 'Post-emergence action against ORYSA in %', 10),
  ('O=C(O)COc1nn(-c2nc(F)ccc2F)c(-c2ccc(F)nc2)c1Cl', 'Post-emergence action against ORYSA in %', 20),
  ('COC(=O)CNC(=O)[C@@H](C)Oc1nn(-c2ccccn2)c(-c2ccc(F)nc2)c1Cl', 'Post-emergence action against ORYSA in %', 0),
  ('COC(=O)COc1nn(-c2nc(F)ccc2F)c(-c2cncc(F)c2)c1Cl', 'Post-emergence action against ORYSA in %', 10),
  ('O=C(O)COc1nn(-c2ncccc2F)c(-c2ccc(F)nc2)c1Br', 'Post-emergence action against ORYSA in %', 10);

// data source = patent US20240041042A1
